The measurements presented in this section are drawn from ChEMBL document CHEMBL1135338.

In this section, each of the molecules is paired with its reported pKi.
- system-tested: Neutrophil collagenase (Homo sapiens)
- Sequence (P22894 whole entry): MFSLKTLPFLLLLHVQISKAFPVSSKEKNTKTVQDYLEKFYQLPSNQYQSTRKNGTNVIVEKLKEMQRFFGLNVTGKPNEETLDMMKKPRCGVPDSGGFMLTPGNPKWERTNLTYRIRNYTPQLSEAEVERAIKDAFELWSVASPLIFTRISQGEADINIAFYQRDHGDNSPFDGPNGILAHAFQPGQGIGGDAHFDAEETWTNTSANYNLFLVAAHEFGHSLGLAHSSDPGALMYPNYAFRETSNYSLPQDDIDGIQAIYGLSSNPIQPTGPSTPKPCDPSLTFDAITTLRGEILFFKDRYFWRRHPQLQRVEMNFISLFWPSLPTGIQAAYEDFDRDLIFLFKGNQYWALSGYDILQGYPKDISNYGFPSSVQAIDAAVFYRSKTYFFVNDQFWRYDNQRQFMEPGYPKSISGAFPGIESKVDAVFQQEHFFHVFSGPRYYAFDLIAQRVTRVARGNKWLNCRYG
- method-summary: Inhibition of human matrix metalloprotease-8
pKi: −log10 of the molar value.
measured-metric: pKi

{"molecule": "C[C@H](NC(=O)[C@H](Cc1ccccc1)NS(=O)(=O)c1cc(Cl)ccc1Cl)C(=O)Nc1n[nH]c(=S)s1", "numeric-result": 5.05}
{"molecule": "C[C@H](NC(=O)[C@H](Cc1ccccc1)NC(=O)NS(=O)(=O)c1ccc(F)cc1)C(=O)Nc1n[nH]c(=S)s1", "numeric-result": 7.00}
{"molecule": "Cc1ccccc1S(=O)(=O)NC(=O)N[C@@H](Cc1ccccc1)C(=O)N[C@@H](C)C(=O)Nc1n[nH]c(=S)s1", "numeric-result": 5.22}
{"molecule": "Cc1ccc(S(=O)(=O)NC(=O)N[C@@H](Cc2ccccc2)C(=O)N[C@@H](C)C(=O)Nc2n[nH]c(=S)s2)cc1", "numeric-result": 5.30}
{"molecule": "C[C@H](NC(=O)[C@H](Cc1ccccc1)NS(=O)(=O)c1ccccc1)C(=O)Nc1n[nH]c(=S)s1", "numeric-result": 4.62}
{"molecule": "C[C@H](NC(=O)[C@H](Cc1ccccc1)NS(=O)(=O)CC12CCC(CC1=O)C2(C)C)C(=O)Nc1n[nH]c(=S)s1 (some centres not stated)", "numeric-result": 4.47}
{"molecule": "Cc1cc(C)c(S(=O)(=O)N[C@@H](Cc2ccccc2)C(=O)N[C@@H](C)C(=O)Nc2n[nH]c(=S)s2)c(C)c1", "numeric-result": 4.60}

====

- system-tested: 72 kDa type IV collagenase (Homo sapiens)
- Sequence (P08253 whole entry): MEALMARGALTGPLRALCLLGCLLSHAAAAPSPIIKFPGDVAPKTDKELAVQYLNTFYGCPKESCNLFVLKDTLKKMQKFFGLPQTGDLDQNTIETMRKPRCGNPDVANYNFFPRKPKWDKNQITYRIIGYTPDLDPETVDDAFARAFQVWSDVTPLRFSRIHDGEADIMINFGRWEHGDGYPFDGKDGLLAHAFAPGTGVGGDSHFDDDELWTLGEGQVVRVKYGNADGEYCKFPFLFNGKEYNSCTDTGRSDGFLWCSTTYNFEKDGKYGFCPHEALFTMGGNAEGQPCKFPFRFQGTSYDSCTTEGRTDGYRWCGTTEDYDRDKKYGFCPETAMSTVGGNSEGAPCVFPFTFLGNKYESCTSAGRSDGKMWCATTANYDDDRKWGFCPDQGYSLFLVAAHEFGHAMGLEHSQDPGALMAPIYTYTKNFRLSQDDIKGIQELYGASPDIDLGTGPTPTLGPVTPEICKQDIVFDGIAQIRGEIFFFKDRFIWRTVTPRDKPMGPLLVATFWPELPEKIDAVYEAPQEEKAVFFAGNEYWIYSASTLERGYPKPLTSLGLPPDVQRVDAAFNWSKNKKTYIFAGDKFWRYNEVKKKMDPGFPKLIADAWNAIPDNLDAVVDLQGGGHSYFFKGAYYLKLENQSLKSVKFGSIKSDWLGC
- method-summary: Inhibition of human matrix metalloprotease-2
pKi: −log10 of the molar value.
Note to self: values exactly at 5 are YES. So pKi at or above 5 is YES, below is NO.

{"compound": "Cc1cc(C)c(S(=O)(=O)N[C@@H](Cc2ccccc2)C(=O)N[C@@H](C)C(=O)Nc2n[nH]c(=S)s2)c(C)c1", "discrete-label": "NO"}
{"compound": "C[C@H](NC(=O)[C@H](Cc1ccccc1)NS(=O)(=O)c1cccc2ccccc12)C(=O)Nc1n[nH]c(=S)s1", "discrete-label": "NO"}
{"compound": "COc1ccc(S(=O)(=O)N[C@@H](Cc2ccccc2)C(=O)N[C@@H](C)C(=O)Nc2n[nH]c(=S)s2)cc1", "discrete-label": "NO"}
{"compound": "C[C@H](NC(=O)[C@H](Cc1ccccc1)NS(=O)(=O)c1ccc2ccccc2c1)C(=O)Nc1n[nH]c(=S)s1", "discrete-label": "NO"}
{"compound": "C[C@H](NC(=O)[C@H](Cc1ccccc1)NS(=O)(=O)c1ccc(F)cc1)C(=O)Nc1n[nH]c(=S)s1", "discrete-label": "NO"}
{"compound": "C[C@H](NC(=O)[C@H](Cc1ccccc1)NS(=O)(=O)c1c(F)c(F)c(F)c(F)c1F)C(=O)Nc1n[nH]c(=S)s1", "discrete-label": "YES"}
{"compound": "C[C@H](NC(=O)[C@H](Cc1ccccc1)NS(=O)(=O)c1ccccc1)C(=O)Nc1n[nH]c(=S)s1", "discrete-label": "NO"}
{"compound": "C[C@H](NC(=O)[C@H](Cc1ccccc1)NS(=O)(=O)Cc1ccccc1)C(=O)Nc1n[nH]c(=S)s1", "discrete-label": "NO"}
{"compound": "C[C@H](NC(=O)[C@H](Cc1ccccc1)NS(=O)(=O)c1ccccc1[N+](=O)[O-])C(=O)Nc1n[nH]c(=S)s1", "discrete-label": "NO"}
{"compound": "C[C@H](NC(=O)[C@H](Cc1ccccc1)NC(=O)NS(=O)(=O)c1ccc(Cl)cc1)C(=O)Nc1n[nH]c(=S)s1", "discrete-label": "YES"}
{"compound": "C[C@H](NC(=O)[C@H](Cc1ccccc1)NS(=O)(=O)CC12CCC(CC1=O)C2(C)C)C(=O)Nc1n[nH]c(=S)s1 (some centres not stated)", "discrete-label": "NO"}
{"compound": "Cc1ccc(S(=O)(=O)NC(=O)N[C@@H](Cc2ccccc2)C(=O)N[C@@H](C)C(=O)Nc2n[nH]c(=S)s2)cc1", "discrete-label": "YES"}
{"compound": "C[C@H](NC(=O)[C@H](Cc1ccccc1)NS(=O)(=O)c1ccc(Br)cc1)C(=O)Nc1n[nH]c(=S)s1", "discrete-label": "NO"}
{"compound": "C[C@H](NC(=O)[C@H](Cc1ccccc1)NC(=O)NS(=O)(=O)c1ccc(F)cc1)C(=O)Nc1n[nH]c(=S)s1", "discrete-label": "YES"}
{"compound": "C[C@H](NC(=O)[C@H](Cc1ccccc1)NS(=O)(=O)c1ccc(Cl)cc1)C(=O)Nc1n[nH]c(=S)s1", "discrete-label": "NO"}
{"compound": "Cc1ccc(S(=O)(=O)N[C@@H](Cc2ccccc2)C(=O)N[C@@H](C)C(=O)Nc2n[nH]c(=S)s2)cc1", "discrete-label": "NO"}
{"compound": "C[C@H](NC(=O)[C@H](Cc1ccccc1)NS(=O)(=O)c1ccc(I)cc1)C(=O)Nc1n[nH]c(=S)s1", "discrete-label": "NO"}
{"compound": "C[C@H](NC(=O)[C@H](Cc1ccccc1)NS(=O)(=O)c1cccc2c(N(C)C)cccc12)C(=O)Nc1n[nH]c(=S)s1", "discrete-label": "NO"}
{"compound": "C[C@H](NC(=O)[C@H](Cc1ccccc1)NS(=O)(=O)c1cccc2cccnc12)C(=O)Nc1n[nH]c(=S)s1", "discrete-label": "NO"}
{"compound": "C[C@H](NC(=O)[C@H](Cc1ccccc1)NC(=O)NS(=O)(=O)c1ccccc1)C(=O)Nc1n[nH]c(=S)s1", "discrete-label": "YES"}

====

- system-tested: Interstitial collagenase (Homo sapiens, UniProt P03956)
- Sequence (P03956 whole entry): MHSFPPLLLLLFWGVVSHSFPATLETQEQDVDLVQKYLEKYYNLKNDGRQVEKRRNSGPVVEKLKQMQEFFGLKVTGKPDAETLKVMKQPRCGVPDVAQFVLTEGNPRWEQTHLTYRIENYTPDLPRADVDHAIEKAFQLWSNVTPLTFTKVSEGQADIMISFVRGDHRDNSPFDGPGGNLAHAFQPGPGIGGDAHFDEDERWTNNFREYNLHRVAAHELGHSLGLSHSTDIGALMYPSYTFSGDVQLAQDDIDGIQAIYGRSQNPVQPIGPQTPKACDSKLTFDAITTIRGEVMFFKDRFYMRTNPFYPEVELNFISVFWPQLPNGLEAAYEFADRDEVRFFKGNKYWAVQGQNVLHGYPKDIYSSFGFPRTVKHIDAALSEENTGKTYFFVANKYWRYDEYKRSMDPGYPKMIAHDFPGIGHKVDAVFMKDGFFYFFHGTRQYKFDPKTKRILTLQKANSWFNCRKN
Exam item: assign True to entries whose Ki is below 30 µM and False to entries at or above 30 µM. Note that a value of exactly 30 µM receives False.

{"molecule": "Cc1ccccc1S(=O)(=O)NC(=O)N[C@@H](Cc1ccccc1)C(=O)N[C@@H](C)C(=O)Nc1n[nH]c(=S)s1", "system-tested": "Interstitial collagenase (Homo sapiens, UniProt P03956)", "discrete-label": "True"}
{"molecule": "CC(=O)Nc1ccc(S(=O)(=O)N[C@@H](Cc2ccccc2)C(=O)N[C@@H](C)C(=O)Nc2n[nH]c(=S)s2)cc1", "system-tested": "Interstitial collagenase (Homo sapiens, UniProt P03956)", "discrete-label": "True"}
{"molecule": "C[C@H](NC(=O)[C@H](Cc1ccccc1)NS(=O)(=O)c1cccc2ccccc12)C(=O)Nc1n[nH]c(=S)s1", "system-tested": "Interstitial collagenase (Homo sapiens, UniProt P03956)", "discrete-label": "False"}
{"molecule": "C[C@H](NC(=O)[C@H](Cc1ccccc1)NS(=O)(=O)c1cccs1)C(=O)Nc1n[nH]c(=S)s1", "system-tested": "Interstitial collagenase (Homo sapiens, UniProt P03956)", "discrete-label": "True"}
{"molecule": "C[C@H](NC(=O)[C@H](Cc1ccccc1)NS(=O)(=O)c1ccc(Br)cc1)C(=O)Nc1n[nH]c(=S)s1", "system-tested": "Interstitial collagenase (Homo sapiens, UniProt P03956)", "discrete-label": "True"}
{"molecule": "C[C@H](NC(=O)[C@H](Cc1ccccc1)NS(=O)(=O)CC12CCC(CC1=O)C2(C)C)C(=O)Nc1n[nH]c(=S)s1 (stereo not given in full)", "system-tested": "Interstitial collagenase (Homo sapiens, UniProt P03956)", "discrete-label": "False"}
{"molecule": "C[C@H](NC(=O)[C@H](Cc1ccccc1)NS(=O)(=O)c1ccc(Cl)cc1)C(=O)Nc1n[nH]c(=S)s1", "system-tested": "Interstitial collagenase (Homo sapiens, UniProt P03956)", "discrete-label": "True"}
{"molecule": "Cc1ccc(S(=O)(=O)NC(=O)N[C@@H](Cc2ccccc2)C(=O)N[C@@H](C)C(=O)Nc2n[nH]c(=S)s2)cc1", "system-tested": "Interstitial collagenase (Homo sapiens, UniProt P03956)", "discrete-label": "True"}
{"molecule": "C[C@H](NC(=O)[C@H](Cc1ccccc1)NC(=O)NS(=O)(=O)c1ccccc1)C(=O)Nc1n[nH]c(=S)s1", "system-tested": "Interstitial collagenase (Homo sapiens, UniProt P03956)", "discrete-label": "True"}
{"molecule": "C[C@H](NC(=O)[C@H](Cc1ccccc1)NS(=O)(=O)c1ccccc1[N+](=O)[O-])C(=O)Nc1n[nH]c(=S)s1", "system-tested": "Interstitial collagenase (Homo sapiens, UniProt P03956)", "discrete-label": "True"}
{"molecule": "C[C@H](NC(=O)[C@H](Cc1ccccc1)NS(=O)(=O)c1cc(Cl)ccc1Cl)C(=O)Nc1n[nH]c(=S)s1", "system-tested": "Interstitial collagenase (Homo sapiens, UniProt P03956)", "discrete-label": "True"}
{"molecule": "COc1ccc(S(=O)(=O)N[C@@H](Cc2ccccc2)C(=O)N[C@@H](C)C(=O)Nc2n[nH]c(=S)s2)cc1", "system-tested": "Interstitial collagenase (Homo sapiens, UniProt P03956)", "discrete-label": "True"}
{"molecule": "C[C@H](NC(=O)[C@H](Cc1ccccc1)NC(=O)NS(=O)(=O)c1ccc(F)cc1)C(=O)Nc1n[nH]c(=S)s1", "system-tested": "Interstitial collagenase (Homo sapiens, UniProt P03956)", "discrete-label": "True"}
{"molecule": "C[C@H](NC(=O)[C@H](Cc1ccccc1)NS(=O)(=O)c1ccc(F)cc1)C(=O)Nc1n[nH]c(=S)s1", "system-tested": "Interstitial collagenase (Homo sapiens, UniProt P03956)", "discrete-label": "True"}
{"molecule": "C[C@H](NC(=O)[C@H](Cc1ccccc1)NS(=O)(=O)c1cccc2cccnc12)C(=O)Nc1n[nH]c(=S)s1", "system-tested": "Interstitial collagenase (Homo sapiens, UniProt P03956)", "discrete-label": "False"}
{"molecule": "C[C@H](NC(=O)[C@H](Cc1ccccc1)NS(=O)(=O)c1cccc([N+](=O)[O-])c1)C(=O)Nc1n[nH]c(=S)s1", "system-tested": "Interstitial collagenase (Homo sapiens, UniProt P03956)", "discrete-label": "True"}
{"molecule": "C[C@H](NC(=O)[C@H](Cc1ccccc1)NS(=O)(=O)c1ccccc1)C(=O)Nc1n[nH]c(=S)s1", "system-tested": "Interstitial collagenase (Homo sapiens, UniProt P03956)", "discrete-label": "True"}
{"molecule": "C[C@H](NC(=O)[C@H](Cc1ccccc1)NS(=O)(=O)c1ccc2ccccc2c1)C(=O)Nc1n[nH]c(=S)s1", "system-tested": "Interstitial collagenase (Homo sapiens, UniProt P03956)", "discrete-label": "False"}
{"molecule": "C[C@H](NC(=O)[C@H](Cc1ccccc1)NS(=O)(=O)c1cccc(C(F)(F)F)c1)C(=O)Nc1n[nH]c(=S)s1", "system-tested": "Interstitial collagenase (Homo sapiens, UniProt P03956)", "discrete-label": "True"}
{"molecule": "Cc1cc(C)c(S(=O)(=O)N[C@@H](Cc2ccccc2)C(=O)N[C@@H](C)C(=O)Nc2n[nH]c(=S)s2)c(C)c1", "system-tested": "Interstitial collagenase (Homo sapiens, UniProt P03956)", "discrete-label": "False"}
